System: 501Mel-XP cells (Vemurafenib-resistant)
Assay: Kinase inhibitor library screening, PrestoBlue cell viability, 1 or 10 μM, 72 h
Settings: 501Mel XP; 10μΜ; 72 h; in %
MEASURED_PROPERTY: Cell viability in kinase inhibitor library screening, 501Mel XP, 10μΜ

Could you tell me which Cell viability in kinase inhibitor library screening, 501Mel XP, 10μΜ is on file for COC(=O)Nc1ccc(-c2nc(N3CCOCC3)c3cnn(C4CCN(Cc5cccnc5)CC4)c3n2)cc1 ?
7.5

Quick check: Cell viability in kinase inhibitor library screening, 501Mel XP, 10μΜ of Cc1ccc(-n2nc(C(C)(C)C)cc2NC(=O)Nc2ccc(OCCN3CCOCC3)c3ccccc23)cc1 ?
86.9

Fill in: Cell viability in kinase inhibitor library screening, 501Mel XP, 10μΜ of COc1ccc(-c2ccc3c(N4CCOCC4)nc(N4C[C@@H](C)O[C@@H](C)C4)nc3n2)cc1CO is ___
6.9

Reported Cell viability in kinase inhibitor library screening, 501Mel XP, 10μΜ, compound COc1ccc2c(c1OC)N=C(NC(=O)c1cccnc1)N1CCN=C21 : ____
43.2

Request the reported Cell viability in kinase inhibitor library screening, 501Mel XP, 10μΜ associated with Cc1ccccc1-n1c(Cn2ncc3c(N)ncnc32)nc2cccc(C)c2c1=O
91.5

I am curious: what Cell viability in kinase inhibitor library screening, 501Mel XP, 10μΜ value has been reported for CN1CCN(c2nc(C3=C(c4c[nH]c5ccccc45)C(=O)NC3=O)c3ccccc3n2)CC1 ?
77.9

Reported Cell viability in kinase inhibitor library screening, 501Mel XP, 10μΜ, compound OCCn1cc(-c2ccc3c(c2)CC/C3=N\O)c(-c2ccncc2)n1 : ____
89.8

// returns reported Cell viability in kinase inhibitor library screening, 501Mel XP, 10μΜ for input Nc1cc(C(F)(F)F)c(-c2cc(N3CCOCC3)nc(N3CCOCC3)n2)cn1
3.6

Param item = C[C@@H](Oc1cc(-n2cnc3ccc(CN4CCN(C)CC4)cc32)sc1C(N)=O)c1ccccc1C(F)(F)F ; retrieve measured Cell viability in kinase inhibitor library screening, 501Mel XP, 10μΜ.
5.4

Query: Cell viability in kinase inhibitor library screening, 501Mel XP, 10μΜ; subject: CO[C@H]1C[C@@H]2CC[C@@H](C)[C@@](O)(O2)C(=O)C(=O)N2CCCC[C@H]2C(=O)O[C@H]([C@H](C)C[C@@H]2CC[C@@H](OC(=O)C(C)(CO)CO)[C@H](OC)C2)CC(=O)[C@H](C)/C=C(\C)[C@@H](O)[C@@H](OC)C(=O)[C@H](C)C[C@H](C)/C=C/C=C/C=C/1C
41.2

Please look up its Cell viability in kinase inhibitor library screening, 501Mel XP, 10μΜ: CC(C)(C)c1nc(-c2cccc(NS(=O)(=O)c3c(F)cccc3F)c2F)c(-c2ccnc(N)n2)s1
97.5

Look at this compound and give its reported Cell viability in kinase inhibitor library screening, 501Mel XP, 10μΜ. Cn1cnc(N)c2ncnc1-2
87.7

Bench note: what Cell viability in kinase inhibitor library screening, 501Mel XP, 10μΜ did Cc1c(CN2CCN(C(=O)[C@H](C)O)CC2)sc2c(N3CCOCC3)nc(-c3cnc(N)nc3)nc12 [GDC-0980 (RG7422)] show?
0.8

Item under review: COc1ccc(-c2cc3c(C)nc(N)nc3n([C@H]3CC[C@H](OCCO)CC3)c2=O)cn1 [PF-04691502, reference compound] . Reported Cell viability in kinase inhibitor library screening, 501Mel XP, 10μΜ?
-0.224
